# test details: activity coefficient (dimensionless); of the first substance listed, at infinite dilution; xn = mol fraction of the nth substance listed
# reported conditions: 358.15 K; 101.33 kPa; Liquid; Chromatography; x1 = 0
Hi there, I'd appreciate the recorded activity coefficient for every entry that follows.
One number for each entry.

CCC[N+](=O)[O-] [1-nitropropane] + CCCCCCCCCCCCn1cc[n+](C)c1.O=S(=O)([N-]S(=O)(=O)C(F)(F)F)C(F)(F)F : 0.621
C=Cc1ccccc1 [styrene] + CCCCCCCCCCCCn1cc[n+](C)c1.O=S(=O)([N-]S(=O)(=O)C(F)(F)F)C(F)(F)F : 0.771
CCC(=O)CC [pentan-3-one] + CCCCCCCCCCCCn1cc[n+](C)c1.O=S(=O)([N-]S(=O)(=O)C(F)(F)F)C(F)(F)F : 0.521
Cc1cccc(C)c1 [1,3-dimethylbenzene] + CCCCCCCCCCCCn1cc[n+](C)c1.O=S(=O)([N-]S(=O)(=O)C(F)(F)F)C(F)(F)F : 1.04
O [water] + CCCCCCCCCCCCn1cc[n+](C)c1.O=S(=O)([N-]S(=O)(=O)C(F)(F)F)C(F)(F)F : 3.03

Each compound below has a reported value. Please supply its activity coefficient.
1. C#CCCCCC [1-heptyne] + CCCCCCCCCCCCn1cc[n+](C)c1.O=S(=O)([N-]S(=O)(=O)C(F)(F)F)C(F)(F)F
2. C#CCCCC [1-hexyne] + CCCCCCCCCCCCn1cc[n+](C)c1.O=S(=O)([N-]S(=O)(=O)C(F)(F)F)C(F)(F)F
3. C=CCCCC [hex-1-ene] + CCCCCCCCCCCCn1cc[n+](C)c1.O=S(=O)([N-]S(=O)(=O)C(F)(F)F)C(F)(F)F
4. CCOC(C)=O [ethyl acetate] + CCCCCCCCCCCCn1cc[n+](C)c1.O=S(=O)([N-]S(=O)(=O)C(F)(F)F)C(F)(F)F

[A]
[1.7, 1.45, 2.34, 0.645]

---

# test details: activity coefficient (dimensionless); of the first substance listed, at infinite dilution; xn = mol fraction of the nth substance listed
# reported conditions: 328.15 K; 101.33 kPa; Liquid; Chromatography; x1 = 0
Hi there, I'd appreciate the recorded activity coefficient for every entry that follows.
Give bare numbers.

C#CCCC [1-pentyne] + CCCCCCCCCCCCn1cc[n+](C)c1.O=S(=O)([N-]S(=O)(=O)C(F)(F)F)C(F)(F)F : 1.11
CCCCCO [pentan-1-ol] + CCCCCCCCCCCCn1cc[n+](C)c1.O=S(=O)([N-]S(=O)(=O)C(F)(F)F)C(F)(F)F : 1.46

Query molecule follows.
[Q] What value of activity coefficient has been reported for the following molecule? CCc1ccccc1 [ethylbenzene] + CCCCCCCCCCCCn1cc[n+](C)c1.O=S(=O)([N-]S(=O)(=O)C(F)(F)F)C(F)(F)F
[A] 0.951

---

# test details: activity coefficient (dimensionless); of the first substance listed, at infinite dilution; xn = mol fraction of the nth substance listed
# reported conditions: 328.15 K; 101.33 kPa; Liquid; Chromatography; x1 = 0
Hi there, I'd appreciate the recorded activity coefficient for every entry that follows.
Give bare numbers.

Each molecule below has a reported value. Please supply its activity coefficient.
1. CC(C)c1ccccc1 [isopropylbenzene] + CCCCCCCCCCCCn1cc[n+](C)c1.O=S(=O)([N-]S(=O)(=O)C(F)(F)F)C(F)(F)F
2. CCCCCC [hexane] + CCCCCCCCCCCCn1cc[n+](C)c1.O=S(=O)([N-]S(=O)(=O)C(F)(F)F)C(F)(F)F
3. CC(C)CO [2-methyl-1-propanol] + CCCCCCCCCCCCn1cc[n+](C)c1.O=S(=O)([N-]S(=O)(=O)C(F)(F)F)C(F)(F)F
4. CCCc1ccccc1 [propylbenzene] + CCCCCCCCCCCCn1cc[n+](C)c1.O=S(=O)([N-]S(=O)(=O)C(F)(F)F)C(F)(F)F
5. C#CCCCCCC [1-octyne] + CCCCCCCCCCCCn1cc[n+](C)c1.O=S(=O)([N-]S(=O)(=O)C(F)(F)F)C(F)(F)F
6. C1COCCO1 [1,4-dioxane] + CCCCCCCCCCCCn1cc[n+](C)c1.O=S(=O)([N-]S(=O)(=O)C(F)(F)F)C(F)(F)F
7. C=C(C)c1ccccc1 [(1-methylethenyl)benzene] + CCCCCCCCCCCCn1cc[n+](C)c1.O=S(=O)([N-]S(=O)(=O)C(F)(F)F)C(F)(F)F

[A]
[1.2, 3.02, 1.42, 1.15, 1.8, 0.499, 0.842]

---

Hi there, I'd appreciate the recorded activity coefficient for every entry that follows.
# test details: activity coefficient (dimensionless); of the first substance listed, at infinite dilution; xn = mol fraction of the nth substance listed
# reported conditions: 368.15 K; 101.33 kPa; Liquid; Chromatography; x1 = 0
Answers are plain numbers.

CC(C)OC(C)C [diisopropyl ether] + CCCCCCCCCCCCn1cc[n+](C)c1.O=S(=O)([N-]S(=O)(=O)C(F)(F)F)C(F)(F)F : 1.99

Each compound below has a reported value. Please supply its activity coefficient.
1. C=Cc1ccccc1 [styrene] + CCCCCCCCCCCCn1cc[n+](C)c1.O=S(=O)([N-]S(=O)(=O)C(F)(F)F)C(F)(F)F
2. Cc1ccc(C)cc1 [1,4-dimethylbenzene] + CCCCCCCCCCCCn1cc[n+](C)c1.O=S(=O)([N-]S(=O)(=O)C(F)(F)F)C(F)(F)F
3. CCC(C)CC [3-methylpentane] + CCCCCCCCCCCCn1cc[n+](C)c1.O=S(=O)([N-]S(=O)(=O)C(F)(F)F)C(F)(F)F
4. C#CCCCC [1-hexyne] + CCCCCCCCCCCCn1cc[n+](C)c1.O=S(=O)([N-]S(=O)(=O)C(F)(F)F)C(F)(F)F

[A]
1: 0.804; 2: 1.09; 3: 3.04; 4: 1.49

---

# test details: activity coefficient (dimensionless); of the first substance listed, at infinite dilution; xn = mol fraction of the nth substance listed
# reported conditions: 358.15 K; 101.33 kPa; Liquid; Chromatography; x1 = 0
Hi there, I'd appreciate the recorded activity coefficient for every entry that follows.
One number for each entry.

As a guide, the following entries are already answered.
COC(C)(C)C [2-methoxy-2-methylpropane] + CCCCCCCCCCCCn1cc[n+](C)c1.O=S(=O)([N-]S(=O)(=O)C(F)(F)F)C(F)(F)F : 1.14
CCC(C)(C)C [2,2-dimethylbutane] + CCCCCCCCCCCCn1cc[n+](C)c1.O=S(=O)([N-]S(=O)(=O)C(F)(F)F)C(F)(F)F : 3.05

Query compound follows.
[Q] What value of activity coefficient has been reported for the following compound? CCCCCO [pentan-1-ol] + CCCCCCCCCCCCn1cc[n+](C)c1.O=S(=O)([N-]S(=O)(=O)C(F)(F)F)C(F)(F)F
[A] 1.3

---

# test details: activity coefficient (dimensionless); of the first substance listed, at infinite dilution; xn = mol fraction of the nth substance listed
# reported conditions: 338.15 K; 101.33 kPa; Liquid; Chromatography; x1 = 0
reported property: activity coefficient
Answers are plain numbers.

As a guide, the following entries are already answered.
c1ccsc1 [thiophene] + CCCCCCCCCCCCn1cc[n+](C)c1.O=S(=O)([N-]S(=O)(=O)C(F)(F)F)C(F)(F)F : 0.6
CC#N [acetonitrile] + CCCCCCCCCCCCn1cc[n+](C)c1.O=S(=O)([N-]S(=O)(=O)C(F)(F)F)C(F)(F)F : 0.524
C#CCCCCCC [1-octyne] + CCCCCCCCCCCCn1cc[n+](C)c1.O=S(=O)([N-]S(=O)(=O)C(F)(F)F)C(F)(F)F : 1.87
C=CCCC [1-pentene] + CCCCCCCCCCCCn1cc[n+](C)c1.O=S(=O)([N-]S(=O)(=O)C(F)(F)F)C(F)(F)F : 1.93
CCCCCO [pentan-1-ol] + CCCCCCCCCCCCn1cc[n+](C)c1.O=S(=O)([N-]S(=O)(=O)C(F)(F)F)C(F)(F)F : 1.4

Each molecule below has a reported value. Please supply its activity coefficient.
1. COC(C)(C)C [2-methoxy-2-methylpropane] + CCCCCCCCCCCCn1cc[n+](C)c1.O=S(=O)([N-]S(=O)(=O)C(F)(F)F)C(F)(F)F
2. Cc1ccc(C)cc1 [1,4-dimethylbenzene] + CCCCCCCCCCCCn1cc[n+](C)c1.O=S(=O)([N-]S(=O)(=O)C(F)(F)F)C(F)(F)F
3. CCCC(C)=O [pentan-2-one] + CCCCCCCCCCCCn1cc[n+](C)c1.O=S(=O)([N-]S(=O)(=O)C(F)(F)F)C(F)(F)F
4. CC(C)=O [acetone] + CCCCCCCCCCCCn1cc[n+](C)c1.O=S(=O)([N-]S(=O)(=O)C(F)(F)F)C(F)(F)F
5. C=C(C)c1ccccc1 [(1-methylethenyl)benzene] + CCCCCCCCCCCCn1cc[n+](C)c1.O=S(=O)([N-]S(=O)(=O)C(F)(F)F)C(F)(F)F
6. CC(C)O [propan-2-ol] + CCCCCCCCCCCCn1cc[n+](C)c1.O=S(=O)([N-]S(=O)(=O)C(F)(F)F)C(F)(F)F

[A]
1: 1.04; 2: 0.958; 3: 0.468; 4: 0.386; 5: 0.896; 6: 1.18

Each molecule below has a reported value. Please supply its activity coefficient.
1. CCCCCCCC [octane] + CCCCCCCCCCCCn1cc[n+](C)c1.O=S(=O)([N-]S(=O)(=O)C(F)(F)F)C(F)(F)F
2. C#CCCC [1-pentyne] + CCCCCCCCCCCCn1cc[n+](C)c1.O=S(=O)([N-]S(=O)(=O)C(F)(F)F)C(F)(F)F
3. CCOCC [diethyl ether] + CCCCCCCCCCCCn1cc[n+](C)c1.O=S(=O)([N-]S(=O)(=O)C(F)(F)F)C(F)(F)F

[A]
1. 4.27
2. 1.16
3. 1.07
